Molecular target: T1, Human CD3 on CD3+ Jurkat cells (human, UniProt P07766 23-207)
T1 construct: whole, on cells; Target is the endogenous CD3 complex on cells; also called Human CD3+ Jurkat cells
T1 sequence (P07766 23-207): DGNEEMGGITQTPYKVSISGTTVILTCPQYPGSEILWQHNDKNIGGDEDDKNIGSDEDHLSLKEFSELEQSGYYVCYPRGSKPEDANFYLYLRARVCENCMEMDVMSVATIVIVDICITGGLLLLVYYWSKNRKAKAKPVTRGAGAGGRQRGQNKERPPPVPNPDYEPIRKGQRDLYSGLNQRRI
Test: flow cytometry, 100 nM IgG1, pH 7.4
Measured Endpoint: NCB (Normalized Cell Binding)
Numbers only.

Check out these entries, answers already filled in.
Binder | Measured Endpoint | Recorded Measurement
Antibody No. V018 (ADI-76361) IgG1 (antibody, V domains shown, IgG1, CHO-produced) VH: QVQLVQSGAEVKKPGASVKVSCKASGFDIKDYYMHWVRQAPGQRLEWMGWIDLEEGNTIYDAKFQGRVTITRDTSASTAYMELSSLRSEDTAVYYCARDAYGRYFYDVWGQGTLVTVSS VL: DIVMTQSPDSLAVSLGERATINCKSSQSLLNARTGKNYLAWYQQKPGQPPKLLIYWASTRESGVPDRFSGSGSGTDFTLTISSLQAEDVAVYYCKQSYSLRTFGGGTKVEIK | NCB (Normalized Cell Binding) | 223
Antibody No. V019 (ADI-76362) IgG1 (antibody, V domains shown, IgG1, CHO-produced) VH: QVQLVQSGAEVKKPGASVKVSCKASGFNIKDYYMHWVRQAPGQRLEWMGWIDLEEGDTIYDAKFQGRVTITRDTSASTAYMELSSLRSEDTAVYYCARDAYGRYFYDVWGQGTLVTVSS VL: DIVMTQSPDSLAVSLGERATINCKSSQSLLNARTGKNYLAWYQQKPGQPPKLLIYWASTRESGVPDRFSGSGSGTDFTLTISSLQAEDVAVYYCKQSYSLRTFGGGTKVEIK | NCB (Normalized Cell Binding) | 328

Turning to the following binder.
// query GET /values?readout=NCB (Normalized Cell Binding)&item= Antibody No. V013 (ADI-70330) IgG1 (antibody, V domains shown, IgG1, CHO-produced) VH: QVQLVQSGAEVKKPGASVKVSCKASGFNIDDYYMHWVRQAPGQRLEWIGWIDLENANTVDDAKFQGRVTITRDTSASTAYMELSSLRSEDTAVYYCARDAYGRYFYDVWGQGTLVTVSS VL: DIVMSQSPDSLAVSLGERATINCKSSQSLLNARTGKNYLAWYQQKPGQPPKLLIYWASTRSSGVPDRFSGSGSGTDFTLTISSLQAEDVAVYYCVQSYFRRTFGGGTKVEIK
// result 295
